target: Angiotensin-I converting enzyme (ACE) (Homo sapiens); construct: purchased Dojindo Inc., Kumamoto, Japan ACE kit-WST; test: ACE inhibition activity assay (ACE kit-WST, colorimetric); assay type: biochemical; details: 3-hydroxybutyryl-Gly-Gly-Gly substrate, mean ± SD of triplicate, read-out: ACE Inhibitory Activity IC50 Value (converted)
Sequence (P12821 30-1306, species assumed): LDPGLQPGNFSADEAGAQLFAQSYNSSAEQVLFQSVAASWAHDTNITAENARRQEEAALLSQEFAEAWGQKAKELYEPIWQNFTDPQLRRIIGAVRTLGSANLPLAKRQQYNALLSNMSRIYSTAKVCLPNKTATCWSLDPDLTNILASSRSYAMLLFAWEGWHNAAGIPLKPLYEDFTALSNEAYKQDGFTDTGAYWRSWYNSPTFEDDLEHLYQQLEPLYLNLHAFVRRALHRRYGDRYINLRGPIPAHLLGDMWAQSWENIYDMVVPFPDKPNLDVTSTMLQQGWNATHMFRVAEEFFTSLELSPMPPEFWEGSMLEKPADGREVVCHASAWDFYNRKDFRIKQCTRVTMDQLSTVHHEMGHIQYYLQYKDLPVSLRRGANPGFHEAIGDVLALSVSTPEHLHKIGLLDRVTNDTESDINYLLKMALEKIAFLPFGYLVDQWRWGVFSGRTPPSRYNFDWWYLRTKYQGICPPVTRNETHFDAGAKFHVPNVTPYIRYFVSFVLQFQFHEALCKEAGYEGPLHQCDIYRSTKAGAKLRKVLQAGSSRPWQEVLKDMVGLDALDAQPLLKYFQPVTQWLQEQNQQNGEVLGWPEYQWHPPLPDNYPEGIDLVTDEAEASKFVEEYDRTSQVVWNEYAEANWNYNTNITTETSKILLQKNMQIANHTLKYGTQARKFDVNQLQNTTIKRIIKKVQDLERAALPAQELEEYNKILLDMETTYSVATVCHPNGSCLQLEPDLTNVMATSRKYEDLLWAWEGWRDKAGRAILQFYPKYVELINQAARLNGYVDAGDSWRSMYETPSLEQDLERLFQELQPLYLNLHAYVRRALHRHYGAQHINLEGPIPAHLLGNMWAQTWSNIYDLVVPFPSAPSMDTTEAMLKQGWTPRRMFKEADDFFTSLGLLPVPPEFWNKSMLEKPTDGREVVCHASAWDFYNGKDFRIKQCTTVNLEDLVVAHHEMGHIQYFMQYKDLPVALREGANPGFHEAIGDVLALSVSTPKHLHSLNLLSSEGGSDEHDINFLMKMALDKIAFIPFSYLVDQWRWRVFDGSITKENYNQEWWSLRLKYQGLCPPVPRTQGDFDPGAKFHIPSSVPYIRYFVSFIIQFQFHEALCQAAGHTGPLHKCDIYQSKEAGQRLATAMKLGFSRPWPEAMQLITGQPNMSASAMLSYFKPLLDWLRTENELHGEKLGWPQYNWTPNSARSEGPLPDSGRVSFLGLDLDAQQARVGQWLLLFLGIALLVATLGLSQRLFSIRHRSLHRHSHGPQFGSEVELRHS
Where a SMILES comes first, the peptide text is derived from it.
Value kind: IC50 (µM)
// return numeric value only (unit: µM, not printed)

Query (compound): CC(C)C[C@H](NC(=O)CNC(=O)[C@@H]1CCCN1C(=O)[C@@H](NC(=O)[C@@H](N)C(C)C)[C@@H](C)O)C(=O)N[C@@H](CCC(N)=O)C(=O)N[C@@H](Cc1ccc(O)cc1)C(=O)O [VTPGLQY] (H-VTPGLQY-OH) ; field requested: IC50
29.6

Data request, read-out IC50, for N=C(N)NCCC[C@H](NC(=O)[C@H](CCC(=O)O)NC(=O)[C@H](Cc1ccc(O)cc1)NC(=O)[C@@H](N)CC(N)=O)C(=O)O [NYER] (H-NYER-OH)
184

Form field: reported IC50 of CC(C)C[C@H](N)C(=O)NCC(=O)N[C@@H](CCC(=O)O)C(=O)N[C@@H](Cc1c[nH]c2ccccc12)C(=O)O [LGEW] (H-LGEW-OH)
328
